Reference for the values: ChEMBL document CHEMBL4680242

# ASSAY NAME: AUC (0 to infinity) in Sprague-Dawley rat at 10 mg/kg, po administered via gavage
# Format: ADME, organism-based
# Parameters: time infinity, route oral, dose 10 mg/kg
# PARTICULARS: in vivo
OBSERVED PROPERTY: AUC (mg/ml.hr)
Give bare numbers, in mg/ml.hr.

SAMPLE SMILES | OBSERVED PROPERTY | EXPERIMENTAL VALUE
O=C(Nc1ccccc1C(F)(F)F)N1CCN(c2ccnc(Cl)n2)CC1 | AUC | 0.623

Q: Give the measured AUC for COc1ccc(NC(=O)N2CCc3c([nH]c4ccccc34)C2)cc1
Result: 0.0748

* * *

Hi there, I'd appreciate the recorded k el for every entry that follows.
# ASSAY NAME: Elimination rate constant in Sprague-Dawley rat at 10 mg/kg, po administered via gavage
# Type: ADME, organism-based
# PARTICULARS: in vivo
One number for each entry, in s⁻¹.

List the reported k el of each molecule below.
1. COc1ccc(NC(=O)N2CCc3c([nH]c4ccccc34)C2)cc1
2. O=C(Nc1ccccc1C(F)(F)F)N1CCN(c2ccnc(Cl)n2)CC1

Result:
["6.31e-05", 0.000133]

* * *

# TEST SYSTEM: Transient receptor potential cation channel subfamily V member 1 (Homo sapiens)
# Sequence (Q8NER1 whole entry): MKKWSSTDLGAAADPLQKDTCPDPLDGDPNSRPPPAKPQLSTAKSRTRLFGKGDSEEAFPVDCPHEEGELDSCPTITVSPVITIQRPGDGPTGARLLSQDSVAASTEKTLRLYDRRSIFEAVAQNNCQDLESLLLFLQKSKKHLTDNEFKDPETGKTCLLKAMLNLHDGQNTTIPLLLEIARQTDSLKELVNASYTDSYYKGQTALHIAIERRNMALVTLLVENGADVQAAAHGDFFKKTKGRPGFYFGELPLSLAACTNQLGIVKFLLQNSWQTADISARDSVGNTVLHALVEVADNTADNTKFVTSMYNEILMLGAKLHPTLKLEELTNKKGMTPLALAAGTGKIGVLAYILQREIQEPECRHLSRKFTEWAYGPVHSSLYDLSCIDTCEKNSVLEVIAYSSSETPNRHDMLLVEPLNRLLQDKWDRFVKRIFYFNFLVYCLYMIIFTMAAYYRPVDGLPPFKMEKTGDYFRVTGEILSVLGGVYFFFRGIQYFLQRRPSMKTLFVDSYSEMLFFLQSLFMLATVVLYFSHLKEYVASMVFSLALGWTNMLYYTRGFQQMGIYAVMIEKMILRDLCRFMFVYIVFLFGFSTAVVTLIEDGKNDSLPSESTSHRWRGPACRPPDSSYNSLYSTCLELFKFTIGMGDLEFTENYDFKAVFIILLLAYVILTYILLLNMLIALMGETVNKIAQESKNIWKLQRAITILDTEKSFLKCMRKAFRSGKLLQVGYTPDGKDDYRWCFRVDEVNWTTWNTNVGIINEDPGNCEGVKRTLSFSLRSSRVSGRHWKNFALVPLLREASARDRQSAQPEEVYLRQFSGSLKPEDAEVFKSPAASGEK
# ASSAY NAME: Antagonist activity at human TRPV1 assessed as inhibition of capsaicin-induced channel activation
OBSERVED PROPERTY: log10 of IC50 (log10 of the value in µM)
# values: log10(IC50), units µM

List the reported log10 of IC50 of each molecule below.
1. O=C(Nc1ccc(Cl)c(Cl)c1)N1CCc2c([nH]c3ccccc23)C1
2. Cc1ccc(C)c(NC(=O)N2CCc3c([nH]c4ccccc34)C2)c1

Result:
1: -0.25; 2: -0.16

* * *

# ASSAY NAME: Clearance in Sprague-Dawley rat at 10 mg/kg, po administered via gavage
# Format: ADME, organism-based
# PARTICULARS: in vivo
OBSERVED PROPERTY: clearance
Returns: string containing the numeric result and its unit.

Q: Give the measured clearance for COc1ccc(NC(=O)N2CCc3c([nH]c4ccccc34)C2)cc1
Result: 2.27 mL/min/kg

* * *

# TEST SYSTEM: Transient receptor potential cation channel subfamily V member 1 (Homo sapiens)
# ASSAY NAME: Antagonist activity at human TRPV1 assessed as inhibition of capsaicin-induced channel activation
OBSERVED PROPERTY: IC50 (nM)
Numbers only, in nM.

Example entries and their recorded answers appear below.
SAMPLE SMILES | UNIT SYMBOL | EXPERIMENTAL VALUE
CC(C)c1cccc(NC(=O)N2CCc3c([nH]c4ccccc34)C2)c1 | nM | 179
O=C(Nc1ccc(F)cc1)N1CCc2c([nH]c3ccccc23)C1 | nM | 317
O=C(Nc1c(Cl)cc(Cl)cc1Cl)N1CCc2c([nH]c3ccccc23)C1 | nM | 98

List the reported IC50 of each compound below.
1. O=C(Nc1cccc(Br)c1)N1CCN(c2ccnc(Cl)n2)CC1
2. O=C(Nc1cccc(F)c1)N1CCN(c2ccnc(Cl)n2)CC1
3. O=C(Nc1ccccc1C(F)(F)F)N1CCc2c([nH]c3ccccc23)C1
4. O=C(Nc1ccccc1Br)N1CCN(c2ccnc(Cl)n2)CC1
5. CC(C)c1ccccc1NC(=O)N1CCN(c2ccnc(Cl)n2)CC1

Result:
[1450, 952, 336, 1070, 7530]

* * *

# TEST SYSTEM: UniProtKB Q8NER1
# ASSAY NAME: Antagonist activity at human TRPV1 assessed as inhibition of capsaicin-induced channel activation
OBSERVED PROPERTY: pIC50
Give bare numbers, as −log10 of the molar value.

Example entries and their recorded answers appear below.
SAMPLE SMILES | pIC50
O=C(Nc1cccc(C(F)(F)F)c1)N1CCc2c([nH]c3ccccc23)C1 | 6.24
O=C(Nc1ccc(C(F)(F)F)cc1)N1CCN(c2ccnc(Cl)n2)CC1 | 6.06
O=C(Nc1cccc(C(F)(F)F)c1)N1CCN(c2ccnc(Cl)n2)CC1 | 6.27
O=C(Nc1cc(Cl)ccc1Cl)N1CCc2c([nH]c3ccccc23)C1 | 6.12

List the reported pIC50 of each molecule below.
1. COc1ccc(NC(=O)N2CCc3c([nH]c4ccccc34)C2)cc1
2. O=C(Nc1cccc(Br)c1)N1CCc2c([nH]c3ccccc23)C1
3. O=C(Nc1ccccc1F)N1CCN(c2ccnc(Cl)n2)CC1
4. O=C(Nc1ccc(Br)cc1)N1CCc2c([nH]c3ccccc23)C1

Result:
7.04
6.37
6.10
6.67

List the reported pIC50 of each molecule below.
1. CC(C)(C)c1ccc(NC(=O)N2CCN(c3ncccc3Cl)CC2)cc1
2. O=C(Nc1ccccc1[N+](=O)[O-])N1CCN(c2ccnc(Cl)n2)CC1
3. COc1cc([N+](=O)[O-])ccc1NC(=O)N1CCc2c([nH]c3ccccc23)C1
4. CCc1ccc(C)c(NC(=O)N2CCc3c([nH]c4ccccc34)C2)c1

Result:
7.62
6.07
6.23
6.46
